# System: HCC 2998
# Test Summary: NCI tumour cell line growth inhibition, 48 h
Activity calls are given as the source filed them. No stated cut-off is given here; in the data, active = GI50 up to about 1.1 µM and inactive = higher.
Catalogue of molecules with associated GI50

For HCC 2998, provide GI50 of CC(C)CCC(=O)c1ccoc1 [PERILLAKETONE] please.
> 100 µM (inactive)

And O=C(COc1ccc(OCC(=O)N/N=C/c2ccc(-c3ccc(Cl)cc3Cl)o2)c(Cl)c1)N/N=C/c1ccc(-c2ccc(Cl)cc2Cl)o1 ?
29.8 µM (inactive)

And C=CCNC1=C(C(=O)OCC)C(=O)CO1 ?
> 100 µM (inactive)

And CC(c1ccccc1)n1c2ccccc2c2c(N)ncnc21 (stereo not drawn) ?
18.2 µM (inactive)

And CC(C)=C1CCC(CN2CCOCC2)C1=O (stereo not drawn) ?
15.4 µM (inactive)

And CCOC(=O)NC(Nc1cccc(C(F)(F)F)c1)(C(F)(F)F)C(F)(F)F ?
> 100 µM (inactive)

And NN/C(Cc1ccccc1)=N\NO ?
> 100 µM (inactive)

And CCCCCCCCCCCCCC(=O)OCC1OC(=O)CC1O (stereo not drawn) ?
> 100 µM (inactive)

And COc1cc2c(NCCCCCO)ncnc2c(OC)c1OC ?
> 100 µM (inactive)

And COc1ccc(C=O)c([N+](=O)[O-])c1 ?
> 10 µM (inactive)

And C=CCc1cc(-c2cc(CC=C)c(O)c(CN(CC)CC)c2)cc(CN(CC)CC)c1O ?
29 µM (inactive)

And Nc1ccc(C(=O)NN2C(=O)[C@H](Cl)C2c2ccc(Cl)cc2)cc1 (stereo partly drawn) ?
1.65 µM (inactive)

And CCCCC(C(=O)CCC(=O)Nc1ccc(Cl)c(Cl)c1)C(=O)C(C)C (stereo not drawn) ?
> 100 µM (inactive)

And O=C(CC(=O)n1nc(-c2ccccc2)c(/N=N/c2ccccc2C(=O)O)c1-c1ccccc1)Nc1ccc(Cl)cc1 ?
34.4 µM (inactive)

---

# Tested on: COLO 205
# Test Summary: NCI tumour cell line growth inhibition, 48 h
Calls of active or inactive are those of the source. Cut-off read from the data, not from the text of the source: active = GI50 up to about 1.1 µM and inactive = higher.
Result category, one only: active, inactive

Compound	Experimental Target	Class Name
CCCCCCCCCC/C=C/CC(=O)SCCNC(=O)CCNC(=O)[C@@H](O)C(C)(C)COP(=O)(O)OP(=O)(O)OCC1OC(n2cnc3c(N)ncnc32)C(O)C1OP(=O)(O)O (stereo partly drawn)	COLO 205	inactive
CSc1cc(-c2cccs2)sc1-c1cc(SC)c(-c2sc(-c3sc(-c4cccs4)cc3SC)cc2SC)s1	COLO 205	inactive

Please share the test call associated with O=c1ccn2n1CCCCC2 .
inactive

And CC(=O)Oc1ccc2c(C)cc(=O)oc2c1OC(C)=O ?
inactive

And O=c1[nH]c2ccc(Cl)cc2c2oc(-c3ccccc3)nc12 ?
inactive

And Cc1ccn2c(c1)nc1nc3ccccc3nc12 ?
inactive

And Fc1ccc(C(OCCN2CCC3CCC(C2)N3Cc2cc3ccccc3[nH]2)c2ccc(F)cc2)cc1 (stereo not drawn) ?
active

And C[C@H](CCC(=O)O[C@@H]1CC[C@@]2(C)C(CC[C@H]3[C@@H]4CC[C@H]([C@H](C)CCc5nc6ccccc6[nH]5)[C@@]4(C)CC[C@@H]32)C1)[C@H]1CC[C@H]2[C@@H]3CCC4C[C@H](O)CC[C@]4(C)[C@H]3CC[C@]12C (stereo partly drawn) ?
inactive
